Assay: Biodistribution in Jurkat tumor-bearing CB-17 SCID mice
Type: in vivo
Details: female, CB-17 SCID, mouse, in vivo, iv, total radioactivity, % iD/g Spleen
Non-standard residues stand in square brackets, D forms with d. Residues, ends and D or L forms follow the SMILES beside them. Groups on a side chain read outwards from the residue. *: point of attachment. DOTA = O=C(O)CN1CCN(CC(=O)O)CCN(CC(=O)*)CCN(CC(=O)O)CC1; dTyr(3-I) = N[C@H](Cc1ccc(O)c(I)c1)C(=O)O; 2Nal = N[C@@H](Cc1ccc2ccccc2c1)C(=O)O; dNMeOrn = CN[C@H](CCCN)C(=O)O; 4Amb = NCc1ccc(C(=O)O)cc1; 4Abz = Nc1ccc(C(=O)O)cc1; dDap = NC[C@@H](N)C(=O)O
So I've got a bunch of compounds here, and I need their tissue uptake at 1 h values.
Number in %ID/g, nothing else.

QUERY: Returns the measured tissue uptake at 1 h for the input compound. Input: C[C@@H](NC(=O)[C@@H](CCCNC(=N)N)NC(=O)[C@@H](CN)NC(=O)CN1CCN(CC(=O)O)CCN(CC(=O)O)CCN(CC(=O)O)CC1)C(=O)NCc1ccc(C(=O)NCCC[C@@H]2C(=O)N[C@@H](CCCNC(=N)N)C(=O)N[C@@H](Cc3ccc4ccccc4c3)C(=O)NCC(=O)N[C@H](Cc3ccc(O)cc3)C(=O)N2C)cc1 [CXCR4-DOTA-1 [Lu]] (cyclo([dY][dNMeOrn]([4Amb-dA-dR-dDap-DOTA])R[2Nal]G))
RESULT: 3.19

QUERY: # tissue uptake at 1 h lookup, item C[C@@H](NC(=O)[C@@H](CCCNC(=N)N)NC(=O)[C@@H](CN)NC(=O)CN1CCN(CC(=O)O)CCN(CC(=O)O)CCN(CC(=O)O)CC1)C(=O)Nc1ccc(C(=O)NCCC[C@@H]2C(=O)N[C@@H](CCCNC(=N)N)C(=O)N[C@@H](Cc3ccc4ccccc4c3)C(=O)NCC(=O)N[C@H](Cc3ccc(O)c(I)c3)C(=O)N2C)cc1 [CXCR4-DOTA-4 [Lu]] (cyclo([dTyr(3-I)][dNMeOrn]([4Abz-dA-dR-dDap-DOTA])R[2Nal]G))
RESULT: 4.57

QUERY: What value of tissue uptake at 1 h has been recorded for this entry: C[C@@H](NC(=O)[C@@H](CCCNC(=N)N)NC(=O)[C@@H](CN)NC(=O)CN1CCN(CC(=O)O)CCN(CC(=O)O)CCN(CC(=O)O)CC1)C(=O)NCc1ccc(C(=O)NCCC[C@@H]2C(=O)N[C@@H](CCCNC(=N)N)C(=O)N[C@@H](Cc3ccc4ccccc4c3)C(=O)NCC(=O)N[C@H](Cc3ccc(O)c(I)c3)C(=O)N2C)cc1 [CXCR4-DOTA-2 [Lu]] (cyclo([dTyr(3-I)][dNMeOrn]([4Amb-dA-dR-dDap-DOTA])R[2Nal]G))
RESULT: 3.62

* * *

Experiment: Biodistribution in Jurkat tumor-bearing CB-17 SCID mice
Format: in vivo
Settings: female, CB-17 SCID, mouse, in vivo, iv, total radioactivity, % iD/g Blood
Protocol: All animal experiments were conducted in accordance with general animal welfare regulations in Germany and the institutional guidelines for the care and use of animals. […] Approximately 0.5-20 MBq (0.02-0.20 nmol) of the ^125I-, ^177Lu-, ^99mTc-, ^18F- or ^68Ga-labeled ligand were injected into the tail vein of Jurkat tumor-bearing CB-17 SCID mice and the animals sacrificed after the respective biodistribution time. Selected organs were removed, weighted and measured in a γ-counter.
Non-standard residues stand in square brackets, D forms with d. Residues, ends and D or L forms follow the SMILES beside them. Groups on a side chain read outwards from the residue. *: point of attachment. DOTA = O=C(O)CN1CCN(CC(=O)O)CCN(CC(=O)*)CCN(CC(=O)O)CC1; dTyr(3-I) = N[C@H](Cc1ccc(O)c(I)c1)C(=O)O; 2Nal = N[C@@H](Cc1ccc2ccccc2c1)C(=O)O; dNMeOrn = CN[C@H](CCCN)C(=O)O; 4Abz = Nc1ccc(C(=O)O)cc1; dDap = NC[C@@H](N)C(=O)O
readout: tissue uptake at 48 h (%ID/g)
Express the result in %ID/g but write the number alone.

QUERY: Entry under review: C[C@@H](NC(=O)[C@@H](CCCNC(=N)N)NC(=O)[C@@H](CN)NC(=O)CN1CCN(CC(=O)O)CCN(CC(=O)O)CCN(CC(=O)O)CC1)C(=O)Nc1ccc(C(=O)NCCC[C@@H]2C(=O)N[C@@H](CCCNC(=N)N)C(=O)N[C@@H](Cc3ccc4ccccc4c3)C(=O)NCC(=O)N[C@H](Cc3ccc(O)c(I)c3)C(=O)N2C)cc1 [CXCR4-DOTA-4 [Lu]] (cyclo([dTyr(3-I)][dNMeOrn]([4Abz-dA-dR-dDap-DOTA])R[2Nal]G)) . Reported tissue uptake at 48 h?
RESULT: 0.02

* * *

Exercise: state measured tissue uptake at 1 h for each of the compounds provided.
Assay: Biodistribution in Jurkat tumor-bearing CB-17 SCID mice
Format: in vivo
Details: female, CB-17 SCID, mouse, in vivo, iv, total radioactivity, % iD/g Heart
Non-standard residues stand in square brackets, D forms with d. Residues, ends and D or L forms follow the SMILES beside them. Groups on a side chain read outwards from the residue. *: point of attachment. DOTA = O=C(O)CN1CCN(CC(=O)O)CCN(CC(=O)*)CCN(CC(=O)O)CC1; dTyr(3-I) = N[C@H](Cc1ccc(O)c(I)c1)C(=O)O; 2Nal = N[C@@H](Cc1ccc2ccccc2c1)C(=O)O; dNMeOrn = CN[C@H](CCCN)C(=O)O; 4Amb = NCc1ccc(C(=O)O)cc1; 4Abz = Nc1ccc(C(=O)O)cc1; dDap = NC[C@@H](N)C(=O)O
Your answer should be a plain number; it is taken to be in %ID/g.

QUERY: Can you look up the measured tissue uptake at 1 h of CN1C(=O)[C@@H](Cc2ccc(O)cc2)NC(=O)CNC(=O)[C@H](Cc2ccc3ccccc3c2)NC(=O)[C@H](CCCNC(=N)N)NC(=O)[C@H]1CCCNC(=O)c1ccc(CNC(=O)CN2CCN(CC(=O)O)CCN(CC(=O)O)CCN(CC(=O)O)CC2)cc1 [^68Ga-Pentixafor, metal not drawn, reference compound] (cyclo([dY][dNMeOrn]([4Amb-DOTA])R[2Nal]G)) for me?
RESULT: 0.56

QUERY: Name the recorded tissue uptake at 1 h for C[C@@H](NC(=O)[C@@H](CCCNC(=N)N)NC(=O)[C@@H](CN)NC(=O)CN1CCN(CC(=O)O)CCN(CC(=O)O)CCN(CC(=O)O)CC1)C(=O)NCc1ccc(C(=O)NCCC[C@@H]2C(=O)N[C@@H](CCCNC(=N)N)C(=O)N[C@@H](Cc3ccc4ccccc4c3)C(=O)NCC(=O)N[C@H](Cc3ccc(O)cc3)C(=O)N2C)cc1 [CXCR4-DOTA-1 [Lu]] (cyclo([dY][dNMeOrn]([4Amb-dA-dR-dDap-DOTA])R[2Nal]G)) .
RESULT: 0.73

QUERY: Entry under review: C[C@@H](NC(=O)[C@@H](CCCNC(=N)N)NC(=O)[C@@H](CN)NC(=O)CN1CCN(CC(=O)O)CCN(CC(=O)O)CCN(CC(=O)O)CC1)C(=O)Nc1ccc(C(=O)NCCC[C@@H]2C(=O)N[C@@H](CCCNC(=N)N)C(=O)N[C@@H](Cc3ccc4ccccc4c3)C(=O)NCC(=O)N[C@H](Cc3ccc(O)c(I)c3)C(=O)N2C)cc1 [CXCR4-DOTA-4 [Lu]] (cyclo([dTyr(3-I)][dNMeOrn]([4Abz-dA-dR-dDap-DOTA])R[2Nal]G)) . Reported tissue uptake at 1 h?
RESULT: 1.13

* * *

Experiment: Biodistribution in Jurkat tumor-bearing CB-17 SCID mice
Type: in vivo
Details: female, CB-17 SCID, mouse, in vivo, iv, total radioactivity, Blood; 1 h p.i.; Jurkat xenograft, CB-17 SCID female mice; read-out: % iD/g Blood
Positions of bridges follow the written chain, without caps; N, C: chain ends. Non-standard residues stand in square brackets, D forms with d. Residues, ends and D or L forms follow the SMILES beside them. Groups on a side chain read outwards from the residue. Chains are numbered I, II in the order given. *: point of attachment. X6 = CN1/C(=C/C=C/C=C/C2=[N+](CCCCCC(=O)*)c3ccc(S(=O)(=O)[O-])cc3C2(C)C)C(C)(C)c2cc(S(=O)(=O)O)ccc21; Tyr(3-I) = N[C@@H](Cc1ccc(O)c(I)c1)C(=O)O; 2Nal = N[C@@H](Cc1ccc2ccccc2c1)C(=O)O; d2Nal = N[C@H](Cc1ccc2ccccc2c1)C(=O)O; dNMeOrn = CN[C@H](CCCN)C(=O)O; Mercaptoacetyl = O=C(CS)*; 4Abz = Nc1ccc(C(=O)O)cc1; X1 = NCCNCC(CNCCN)C(=O)*; dDap = NC[C@@H](N)C(=O)O
readout: tissue uptake at 1 h (%ID/g)
Your answer should be a plain number; it is taken to be in %ID/g.

QUERY: Given C[C@@H](NC(=O)[C@@H](CCCNC(=N)N)NC(=O)[C@@H](CN)NC(=O)CCCCC[N+]1=C(/C=C/C=C/C=C2/N(C)c3ccc(S(=O)(=O)O)cc3C2(C)C)C(C)(C)c2cc(S(=O)(=O)[O-])ccc21)C(=O)Nc1ccc(C(=O)NCCC[C@@H]2C(=O)N[C@@H](CCCNC(=N)N)C(=O)N[C@H](Cc3ccc4ccccc4c3)C(=O)NCC(=O)N[C@@H](Cc3ccc(O)c(I)c3)C(=O)N2C)cc1 [CXCR4-OI-2] (cyclo([Tyr(3-I)][dNMeOrn]([4Abz-dA-dR-dDap-X6])R[d2Nal]G)) , state its recorded tissue uptake at 1 h.
RESULT: 1.73

QUERY: Entry C[C@@H](NC(=O)[C@@H](CCCNC(=N)N)NC(=O)[C@@H](CN)NC(=O)C(CNCCN)CNCCN)C(=O)Nc1ccc(C(=O)NCCC[C@@H]2C(=O)N[C@@H](CCCNC(=N)N)C(=O)N[C@@H](Cc3ccc4ccccc4c3)C(=O)NCC(=O)N[C@H](Cc3ccc(O)cc3)C(=O)N2C)cc1 [Tc-CXCR4-14] (cyclo([dY][dNMeOrn]([4Abz-dA-dR-dDap-X1])R[2Nal]G)) has what tissue uptake at 1 h?
RESULT: 1.62

QUERY: Would you mind telling me what tissue uptake at 1 h value was observed for C[C@@H](NC(=O)[C@@H](CCCNC(=N)N)NC(=O)[C@@H](Cc1c[nH]cn1)NC(=O)[C@@H](CO)NC(=O)[C@@H](CO)NC(=O)[C@@H](CO)NC(=O)CS)C(=O)Nc1ccc(C(=O)NCCC[C@@H]2C(=O)N[C@@H](CCCNC(=N)N)C(=O)N[C@@H](Cc3ccc4ccccc4c3)C(=O)NCC(=O)N[C@H](Cc3ccc(O)cc3)C(=O)N2C)cc1 [Tc-CXCR4-5] (I: Mercaptoacetyl-[dS][dS][dS][dH][dR][dA][4Abz] / II: cyclo([dY][dNMeOrn]R[2Nal]G); amide I:C-II:2) ?
RESULT: 0.65
